System: HCC1428
Assay: -log10 GI50 (growth inhibition 50%) (-log10(M)); higher = more potent growth inhibition
OBSERVATION TYPE: -log10 GI50

{"columns": ["COMPOUND", "-log10 GI50"],
 "data": [
  ["O=c1cc(-c2ccccc2)oc2cc(O)c(O)c(O)c12 [Baicalein]", 4.41],
  ["O=c1[nH]c2ccccc2n1C1CCN(Cc2ccc(-c3[nH]c4cc5ncnc5cc4nc3-c3ccccc3)cc2)CC1 [Akt inhibitor VIII]", 5.35],
  ["O=S(=O)(CC1CS1)c1ccc(Oc2ccccc2)cc1 (configuration not stated) [SB-3CT]", 4.24],
  ["O=C(CCCCCCC(=O)Nc1ccccc1)NO [Vorinostat]", 4.42],
  ["CNC(=O)c1cc(Oc2ccc(NC(=O)Nc3ccc(Cl)c(C(F)(F)F)c3)cc2)ccn1 [Sorafenib]", 4.34]
]}

----------
Tested on: MDAMB175VII
Assay: -log10 GI50 (growth inhibition 50%) (-log10(M)); higher = more potent growth inhibition
OBSERVATION TYPE: -log10 GI50

Example results:
{"columns": ["COMPOUND", "-log10 GI50"],
 "data": [
  ["COc1cc2ncnc(Nc3cccc(Cl)c3)c2cc1OC", 6.08],
  ["O=c1[nH]cc(F)c(=O)[nH]1", 3.96],
  ["CC(C)Oc1ccc(C(=O)N[C@H](CNC(=O)CN(C)C)Cc2ccc(-c3cn4cccc([C@H](C)O)c4n3)cc2)cc1Cl", 6.76],
  ["CC[C@@]1(O)C(=O)OCc2c1cc1n(c2=O)Cc2cc3c(CN(C)C)c(O)ccc3nc2-1", 5.95],
  ["COc1cccc2c1C(=O)c1c(O)c3c(c(O)c1C2=O)C[C@@](O)(C(=O)CO)C[C@@H]3O[C@H]1C[C@H](N)[C@@H](O)[C@H](C)O1 [Epirubicin]", 7.05]
]}

(P) CC(C)C[C@H](NC(=O)[C@H](Cc1ccccc1)NC(=O)c1cnccn1)B(O)O
(Q) C[C@@H](Oc1cc(-n2cnc3ccc(CN4CCN(C)CC4)cc32)sc1C(N)=O)c1ccccc1C(F)(F)F
Query: Which of the two gives a bigger number for -log10 GI50: P or Q ? Indicate which entry you chose by stating its label.
Response: P
(P: 8.3, Q: 5.21)

----------
Known -log10 GI50 of a selection of molecules
Tested on: MCF10F
Assay: -log10 GI50 (growth inhibition 50%) (-log10(M)); higher = more potent growth inhibition
// keep it numeric: no unit symbol after the value

Example results:
{"columns": ["INPUT SMILES", "ASSAY TARGET", "OBSERVATION TYPE", "OBSERVED VALUE"],
 "data": [
  ["O=C(/C=C/C#Cc1cccc(NS(=O)(=O)c2ccccc2)c1)NO", "MCF10F", "-log10 GI50", 5.41],
  ["CCC1=C[C@@H]2CN(C1)Cc1c([nH]c3ccccc13)[C@@](C(=O)OC)(c1cc3c(cc1OC)N(C)[C@H]1[C@@](O)(C(=O)OC)[C@H](OC(C)=O)[C@]4(CC)C=CCN5CC[C@]31[C@@H]54)C2", "MCF10F", "-log10 GI50", 7.75],
  ["Cc1ccc(C(=O)N(CCCN)[C@@H](c2nc3cc(Cl)ccc3c(=O)n2Cc2ccccc2)C(C)C)cc1", "MCF10F", "-log10 GI50", 7.57]
]}

Query: Give MCF10F -log10 GI50 for CC(/C=C/C(=O)NO)=C\[C@@H](C)C(=O)c1ccc(N(C)C)cc1
Response: 4.22

Query: Give MCF10F -log10 GI50 for CCNCCCNC/C=C\CNCCCNCC
Response: 3.76

Query: Give MCF10F -log10 GI50 for C[C@@H](Oc1cc(-n2cnc3ccc(CN4CCN(C)CC4)cc32)sc1C(N)=O)c1ccccc1C(F)(F)F
Response: 7.11

Query: Give MCF10F -log10 GI50 for O=C(O)C1(C(=O)O)CCC1.[NH2-].[NH2-].[Pt+2]
Response: 4.41

Measured values drawn from the supplement of paper PMC3937590 for this set.
